test: GPCRScan assay: inhibition of GABA/PBR; design: species or system Rattus norvegicus; radioligand conc. used [nm] 0.3 – 2.0, parental cells brain tissue
pKi: −log10 of the molar value.
Endpoint: pKi

Hello, please tell me recorded pKi for this one: O=C(Cc1ccccc1)Nc1nnc(N2C[C@H]3C[C@@H]2CN3c2cccnn2)s1 [A-446]
< 5.00
